Target: Disintegrin and metalloproteinase domain-containing protein 17 (Homo sapiens) (UniProt P78536)
Sequence (P78536 215-824 limits assumed): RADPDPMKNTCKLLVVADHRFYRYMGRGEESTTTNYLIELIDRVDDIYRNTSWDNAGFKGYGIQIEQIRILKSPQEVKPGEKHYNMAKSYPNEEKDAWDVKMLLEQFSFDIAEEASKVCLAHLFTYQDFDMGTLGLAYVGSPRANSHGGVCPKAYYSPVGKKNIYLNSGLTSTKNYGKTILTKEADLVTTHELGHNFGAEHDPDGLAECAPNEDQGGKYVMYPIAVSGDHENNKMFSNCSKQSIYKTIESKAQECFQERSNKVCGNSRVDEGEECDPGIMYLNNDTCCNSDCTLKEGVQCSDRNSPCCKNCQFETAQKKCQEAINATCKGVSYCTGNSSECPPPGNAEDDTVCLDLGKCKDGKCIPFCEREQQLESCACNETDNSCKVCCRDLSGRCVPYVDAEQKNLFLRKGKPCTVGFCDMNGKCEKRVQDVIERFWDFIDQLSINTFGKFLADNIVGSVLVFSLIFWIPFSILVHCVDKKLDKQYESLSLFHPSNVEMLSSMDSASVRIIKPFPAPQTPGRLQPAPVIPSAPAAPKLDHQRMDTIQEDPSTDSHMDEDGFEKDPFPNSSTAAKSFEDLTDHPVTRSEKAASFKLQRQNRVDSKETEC
Assay: inhibition of ADAM17 peptide cleavage – biochemical, QFRET, primary screen (AID 720648);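 further: 0% = DMSO-only wells as the low control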
Conditions: recombinant ADAM17, EDANS/DABCYL FRET peptide cleavage; at 6.95 µM; stronger effect = higher value
The whole screen tested about 370,000 compounds, of which about 3,100 (0.84%) were called active. The full list was thinned out, with actives kept by preference.
OBSERVED PROPERTY: inhibition (%)

CC(=O)C1(C(=O)Nc2nccs2)CC(c2ccccc2C(F)(F)F)=NO1 (stereo not given) = -1.77
CNC(=S)N/N=C/c1ccc(OCc2ccccc2)c(Br)c1 = -1.43
Cc1ccc(NC(=O)CCNS(=O)(=O)c2ccc3c(c2)oc(=O)n3C)cc1C = 1.53
C=CCOc1ccc(/C=N/n2cncn2)cc1OC = -11.9
COc1ccc(C(=O)Nc2ccc3nc(N4CCCCC4)cc(C)c3c2)cc1OC = -7.57
CCC(=O)OCCCN1C(=O)CCC12CCC(c1ccccc1)CC2 (stereo not given) = 0.25
CCOC(=O)N1CCN(C(=O)C[C@@H]2C(=O)N(CCc3ccc(Cl)cc3)C3=CCCC[C@]32C(=O)OCC)CC1 = -1.27
Cc1cc(C(=O)NN=C/C=C/c2ccco2)n[nH]1 = -5.03
O=C(OC12CCCN(C1)/C(=C/c1ccccc1)C2)c1ccco1 (stereo not given) = 6.28
COc1cc(NC(=O)CCS(=O)(=O)c2ccc3c(c2)oc(=O)n3C)cc(OC)c1 = 8.71

----------
Entries and their inhibition
Biological target: Disintegrin and metalloproteinase domain-containing protein 17 (Homo sapiens) (UniProt P78536)
Assay: inhibition of ADAM17 peptide cleavage – biochemical, QFRET, primary screen (AID 720648);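 further: 0% = DMSO-only wells as the low control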
Conditions: recombinant ADAM17, EDANS/DABCYL FRET peptide cleavage; at 6.95 µM; stronger effect = higher value
Screen size: about 370,000 compounds; about 3,100 (0.84%) were called active. The full list was thinned out, with actives kept by preference.
OBSERVED PROPERTY: inhibition (%)

O=C(COc1cc(Cl)c(Cl)cc1Cl)NC(=O)NC1CCCC1 = -3.67
O=C(NC1CCC1)c1ccc(C#CC2CC2)cn1 = -2.55
CCCN(CC(=O)NC(=O)NC1CCCCC1)CC(=O)Nc1cc(Cl)ccc1Cl = 9.13
CCOc1ccc(-n2c(SCC(=O)Nc3cc(C)c(NC(=O)c4ccccc4)cc3OC)nnc2-c2cccc(Cl)c2)cc1 = 6.75
CCOC(=O)[C@@]12CCC3=C1N(CCC3)C(=O)[C@H](CC(=O)N1CCN(C(=O)c3ccco3)CC1)C2 = -6.34
O=C(Nc1cccc(Cl)c1)OC1CC2CC1[C@H]1CCCCN1[C@H]2Cc1ccccc1 (stereo partly specified) = -2.76
CC(C)N1CCCCC(NC(=O)C(C)(C)C)C1=O (stereo unspecified) = -2.39
CC(C)(C)c1ccc(CSc2nnc(-c3cccs3)o2)cc1 = -1.78
COc1ccccc1C(=O)CSc1nnc(-c2ccccn2)n1-c1ccccc1 = -0.51
COc1cccc(CNc2nc(NCc3cccs3)nc3ccsc23)c1 = 0.1
C=CCN1[C@@H](Cc2ccccc2)COc2cccc(N3CCSCC3)c2S1(=O)=O = -1.76

----------
Target: Disintegrin and metalloproteinase domain-containing protein 17 (Homo sapiens) (UniProt P78536)
Assay: inhibition of ADAM17 peptide cleavage – biochemical, QFRET, primary screen (AID 720648);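 further: 0% = DMSO-only wells as the low control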
Settings: recombinant ADAM17, EDANS/DABCYL FRET peptide cleavage; at 6.95 µM; stronger effect = higher value
The whole screen tested about 370,000 compounds, of which about 3,100 (0.84%) were called active. The full list was thinned out, with actives kept by preference.
Entries and their inhibition
OBSERVED PROPERTY: inhibition (%)

Cc1cc(NC(=O)CSCC(=O)NC(C)c2ccccc2)no1 (stereo not given) = -2.03
CC1C(=O)N(Cc2cn(CC3CCCCC3)nn2)CCS(=O)(=O)N1Cc1ccc(-c2cccc(N(C)C)c2)cc1 (stereo not given) = -2.56
CCCn1nc(C(=O)NNC(=O)CCOc2ccccc2OCC)c2ccccc2c1=O = -0.01
O=C1NC(=O)C(c2ccc(Cl)cc2)N1 (stereo not given) = 35.4
O=C1CSC(c2ccc(Cl)cc2)N1 (stereo not given) = -1
COC(=O)[C@H](C(C)C)N(CCCc1cn(Cc2ccccc2)nn1)S(=O)(=O)c1ccc(F)cc1Br = 2.02
COc1ccc(-c2ccc(CN3C(CC(C)C)C(=O)N(Cc4cn(CC5CCCCC5)nn4)CCS3(=O)=O)cc2)cc1 (stereo not given) = 9.87
CCCn1nc(C(=O)NNC(=O)CSCC(=O)Nc2cc(C)on2)c2ccccc2c1=O = 11.3
O=C(CSc1nc2ccccc2n1Cc1ccccc1Cl)N/N=C\c1c[nH]c2ccccc12 = 4.92
Cc1ccc(Cn2cc(CN3[C@@H](CC(C)C)COc4ccc(Cl)cc4S3(=O)=O)nn2)cc1 = -0.49
